Values compiled from patent US9018255B2.

Kindly supply the reported IC50 values for the records listed here.
# study-target: rat recombinant thioredoxin reductase (Rattus norvegicus (Rat))
# Sequence (O89049 whole entry): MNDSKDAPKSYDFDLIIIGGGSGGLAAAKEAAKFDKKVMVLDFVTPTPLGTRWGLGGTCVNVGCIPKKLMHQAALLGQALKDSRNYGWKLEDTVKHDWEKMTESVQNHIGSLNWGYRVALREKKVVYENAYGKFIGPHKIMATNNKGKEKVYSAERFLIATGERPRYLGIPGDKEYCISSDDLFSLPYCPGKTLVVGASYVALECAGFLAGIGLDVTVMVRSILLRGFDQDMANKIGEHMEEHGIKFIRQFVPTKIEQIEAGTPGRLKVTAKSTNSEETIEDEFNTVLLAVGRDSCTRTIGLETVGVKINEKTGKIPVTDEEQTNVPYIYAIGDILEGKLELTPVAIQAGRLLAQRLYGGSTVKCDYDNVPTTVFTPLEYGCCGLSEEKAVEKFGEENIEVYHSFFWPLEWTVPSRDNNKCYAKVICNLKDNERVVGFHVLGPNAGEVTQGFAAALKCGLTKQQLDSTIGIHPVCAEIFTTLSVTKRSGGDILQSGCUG
# protocol-description: Thioredoxin reductase activity, DTNB chromogenic assay (Thioredoxin Reductase Assay Kit)
# Format: biochemical
# test-settings: 5 min from reaction onset; read-out: IC50 of thioredoxin reductase activity inhibition

Consider the reported IC50 for these compounds:
compound | study-target | reported-measurement
C=C(COC(=O)c1c(C(F)(F)F)cccc1C(F)(F)F)C(=O)NC(CC(C)C)C(=O)NCC(=O)OCC (racemic) | rat recombinant thioredoxin reductase (Rattus norvegicus (Rat)) | 37.1 µM
C=C(COC(=O)c1c(C(F)(F)F)cccc1C(F)(F)F)C(=O)NCc1ccccc1 | rat recombinant thioredoxin reductase (Rattus norvegicus (Rat)) | > 40 µM

Field: next compound
Given the entry "C=C(COC(=O)c1c(Cl)cccc1Cl)C(=O)NCc1ccccc1" , what IC50 was observed with rat recombinant thioredoxin reductase (Rattus norvegicus (Rat))?
> 40 µM
